tested.target: Fe65-WW domain (WW domain of Fe65) (Homo sapiens)
Construct: no expression host
run.description: ITC binding to Fe65-WW
assay.conditions: 310 K, PBS pH 7.4, Fe65-WW 83.5 μM in cell, P33 1.006 mM in syringe, measurements repeated twice, read-out: dissociation constant Kd
pKd: −log10 of the molar value. Where a SMILES comes first, the peptide text is derived from it.

| compound | pKd |
| --- | --- |
| C[C@@H](N)C(=O)N1CCC[C@@H]1C(=O)N[C@H](C)C(=O)N1CCC[C@@H]1C(=O)N[C@H](CCC(=O)O)C(N)=O [P33] (HELM PEPTIDE1{[dA].[dP].[dA].[dP].[dE].[am]}$$$$V2.0) | 5.33 |

Hello, the source for this data is paper PMC6627374, in case you need it.
